All figures here come from ChEMBL document CHEMBL3860066.

target: Excitatory amino acid transporter 2 (Homo sapiens, UniProt P43004); experiment: Inhibition of [3H]-D-Asp uptake at human EAAT2 expressed in HEK293 cells measured after 3 mins by TopCount method; assay type: cell-based; details: read-out: IC50
readout name: IC50

Example molecules with recorded IC50:
N[C@H](C(=O)O)C(NS(=O)(=O)c1cccc(C(=O)O)c1)C(=O)O (mixture of isomers)
> 300 µM
N[C@H](C(=O)O)C(NS(=O)(=O)c1c(F)c(F)c(F)c(F)c1F)C(=O)O (single isomer, unassigned; diastereomer 1)
> 300 µM
N[C@H](C(=O)O)C(NS(=O)(=O)c1ccc(F)c(F)c1)C(=O)O (mixture of isomers)
11 µM

Form: item N[C@H](C(=O)O)C(NC(=O)Oc1ccccc1)C(=O)O (single isomer, unassigned; diastereomer 1) ; test system Excitatory amino acid transporter 2 (Homo sapiens, UniProt P43004); IC50: > 1000 µM
